# System: rodent lifetime carcinogenesis bioassay, tumor incidence TD50
# assayInfo: carcinogenic potency in animals, long-term in vivo studies, CPDB compilation (AID 1745844)
# conditionSet: rat; strain Wistar; both sexes; in feed; site: several sites; sites named in the paper; lesion: malignant lymphoma; dosed 93 weeks; study length 93 weeks
assayMetric: TD50

Supply measured TD50 of CCN(Cc1cccc(S(=O)(=O)O)c1)c1ccc(C(=C2C=CC(=[N+](CC)Cc3cccc(S(=O)(=O)[O-])c3)C=C2)c2ccccc2)cc1 in your reply.
3920 mg/kg/day

---

# System: rodent lifetime carcinogenesis bioassay, tumor incidence TD50
# assayInfo: carcinogenic potency in animals, long-term in vivo studies, CPDB compilation (AID 1745844)
# conditionSet: rat; strain Norwegian albino; females; in feed; site: urinary bladder; lesion: several types; types named in the paper; dosed 58 weeks; study length 58 weeks
assayMetric: TD50

Supply measured TD50 of O=c1c(O)c(-c2ccc(O)c(O)c2)oc2cc(O)cc(O)c12 in your reply.
51.3 mg/kg/day
